- Test system: SK-OV-3
- test.protocol: NCI tumour cell line growth inhibition, 48 h
Calls of active or inactive are those of the source. No stated cut-off is given here; in the data, active = GI50 up to about 1.1 µM and inactive = higher.
Listing: GI50 of selected compounds

// known answers, use as guide
> print(dat)
                                   compound  experimental.system      recorded.result
1  CCCCCCCCCCCCOCCCOP(=O)([O-])OCC[N+](C)(C)C              SK-OV-3   50.8 µM (inactive)
2   Cc1ccccc1NC(=O)c1nc(S)nc(N)c1-c1ccccc1C              SK-OV-3  > 100 µM (inactive)
3  C=C(C)C1CCC(C(=O)O)CC1 (centres undefined)              SK-OV-3  > 100 µM (inactive)

I have this compound here, O=S(=O)(Oc1ccc2ccccc2c1-c1c(OS(=O)(=O)C(F)(F)F)ccc2ccccc12)C(F)(F)F , and I need its recorded GI50.
> 100 µM (inactive)

---

Listing: GI50 of selected compounds
- Tested on: NCI-H23
- test.protocol: NCI tumour cell line growth inhibition, 48 h
Calls of active or inactive are those of the source. Rule as the data show it: active = GI50 up to about 1.1 µM and inactive = higher.

// known answers, use as guide
> print(dat)
                        compound      recorded.result
1  Oc1cc(-c2ccccn2)nc2cc(F)ccc12  > 100 µM (inactive)
2    N#C/C(=C\c1cccc(O)c1)C(N)=O  > 100 µM (inactive)

I have this compound here, O=C(CCCN1CCC(O)(c2ccc(Cl)cc2)CC1)c1ccc(F)cc1 [HALOPERIDOL] , and I need its recorded GI50.
31 µM (inactive)

Here is the next compound: CC(C)[C@H](CCl)NC(=O)c1cccc(C(=O)N[C@H](CCl)C(C)C)n1 (stereo in doubt)
> 100 µM (inactive)

Here is the next compound: CC(=O)Oc1cc(/C=C/c2ccc(O)cc2)cc(OC(C)=O)c1
11.7 µM (inactive)

---

- System: T47D
- test.protocol: NCI tumour cell line growth inhibition, 48 h
Active and inactive are the calls of the source. No stated cut-off is given here; in the data, active = GI50 up to about 1.1 µM and inactive = higher.
Listing: GI50 of selected compounds

compound	recorded.result
COc1ccc(N2C(=O)C(Cl)C2c2cc3cc(Br)ccc3nc2Cl)cc1 (configuration not stated)	15.1 µM (inactive)
Cc1cc(C)n(-c2nc3ccccc3c(=O)n2-c2ccccc2)n1	> 100 µM (inactive)
CCCCCCc1cc2cc(-c3csc(-c4ccc(OC)cc4)n3)c(=O)oc2cc1O	7.82 µM (inactive)
C/C(=C\CO)CC/C=C(\C)CNc1ccc([N+](=O)[O-])cc1	11.6 µM (inactive)

I have this compound here, COC(=O)CCC1(CCC(=O)OC)CCCCCCC(CCC(=O)OC)(CCC(=O)OC)C(=O)C1=O , and I need its recorded GI50.
20.5 µM (inactive)

Here is the next compound: C=CC1=C(C)c2cc3[nH]c(c4c5nc(cc6[nH]c(cc1n2)c(C)c6CC)C=C5C(=O)C4C(=O)OC)C(CCC(=O)OC/C=C(\C)CCCC(C)CCCC(C)CCCC(C)C)C3C.C=CC1=C(C)c2cc3[nH]c(c4c5nc(cc6[nH]c(cc1n2)c(C=O)c6CC)C=C5C(=O)C4C(=O)OC)C(CCC(=O)OC/C=C(\C)CCCC(C)CCCC(C)CCCC(C)C)C3C (configuration not stated)
> 100 µM (inactive)

Here is the next compound: N=C(N)NS(=O)(=O)c1ccc(NCc2c3ccccc3nc3ccccc23)cc1
1.16 µM (inactive)
